# System: SN12C renal
# protocol.notes: NCI tumour cell line growth inhibition, 48 h
// values below are reported log10(TGI)
Hi team, quick reminder: these entries are log10 of TGI (µM).

Solved entries:
C[C@@]1(CBr)C[C@@](C)(/C=C/Cl)[C@@H](Cl)C[C@H]1Cl = 1.39
Cc1[nH]ccc2cc3nc4ccccc4c3cc12 = 1.10
CCNC(=O)CCCCC(=O)c1c(C)[nH]c(/C=C2\N=C(c3ccc[nH]3)C=C2OC)c1C = 0.79
ClC1=C(Cl)C(Cl)=C(Cl)C1=Cc1ccc(Cl)cc1Cl = -0.13
NCCCn1c2c(c3ccc([N+](=O)[O-])cc3c1=O)C(=O)c1cc(Cl)ccc1-2 = -0.84

--- query ---
query: So what does the record say about log10(TGI) for COc1cc(C(=O)/C=C/c2c(-c3cccs3)nc3ccccn23)cc(OC)c1OC ?
result: 1.43

====

# System: SK-OV-3 ovarian
# protocol.notes: NCI tumour cell line growth inhibition, 48 h
quantity.measured: TGI

O=S(=O)(Nc1nc(-c2cc(O)c(O)c(O)c2)cs1)c1ccc(Cl)cc1Cl = > 100 µM
CCOC(=O)CC(=Nc1cc(C)on1)N(CC)CC = > 100 µM
CCOC(=O)c1ccc2c(=O)n3c(C(=O)OCC)ccc3c(=O)n12 = > 100 µM
Cc1[nH]ccc2cc3nc4ccccc4c3cc12 = 18.1 µM
CN(C(=O)C1CC1)C1C2CN3CCC(O2)C13 (centres undefined) = > 100 µM

query: Find the measured TGI: item COc1cc(C2c3cc4c(cc3[C@@H](Nc3ccc(N5CCOCC5)cc3)C3COC(=O)[C@H]23)OCO4)cc(OC)c1O (some centres undefined) , target or system SK-OV-3 ovarian.
result: 5.38 µM

query: Please answer likewise for O=C(Cc1nc2ccccc2s1)C(=O)Nc1ccc(Cl)cc1Cl
result: > 100 µM

query: Please answer likewise for O=C1c2c(O)cccc2C(C(=O)CCCC(=O)C2c3cccc(O)c3C(=O)c3c(O)cccc32)c2cccc(O)c21
result: 1.05 µM

query: Please answer likewise for O=C(O)C1C2CCC(C2)C1c1ccccc1 (centres undefined)
result: > 100 µM

query: Please answer likewise for Cc1cccc2cc3ccc4ccccc4c3cc12
result: > 100 µM

query: Please answer likewise for CN(Cc1ccccc1)c1nc(=[N+](C)C)ss1
result: > 100 µM

query: Please answer likewise for CN(C)CCC(=O)NCc1c2nc3ccccc3nc2n2ccccc12
result: > 100 µM

query: Please answer likewise for C=CC1=C(C)C(Cc2[nH]c(/C=c3\[nH]/c(=C/C4=NC(=O)C(C)/C4=C\C)c(C)c3CCC(=O)O)c(CCC(=O)OC)c2C)NC1=O (centres undefined)
result: 78.2 µM

query: Please answer likewise for CCCCCCCCCCC(CN(CC)CC)C(O)c1ccccc1 (centres undefined)
result: 9.52 µM

====

# Test system: SK-MEL-2 melanoma
# protocol.notes: NCI tumour cell line growth inhibition, 48 h
quantity.measured: GI50

Solved entries:
CN(C)CCC(=O)NCc1c2nc3ccccc3nc2n2ccccc12 = 48.1 µM
O=C(/C=C\c1ccc(OCCCCCC[P+](c2ccccc2)(c2ccccc2)c2ccccc2)cc1)c1ccc2c(c1)OCCO2 = 1.41 µM
Cc1ccc2oc(=O)cc(C3c4ccc([nH]4)C(c4cc(=O)oc5ccc(C)cc45)c4ccc([nH]4)C(c4cc(=O)oc5ccc(C)cc45)c4ccc([nH]4)C(c4cc(=O)oc5ccc(C)cc45)c4ccc3[nH]4)c2c1 (centres undefined) = 0.0983 µM
O=C(Nn1c2c(sc1=NC1CC1)C(=O)c1ccccc1C2=O)c1cc2ccc1CCc1ccc(cc1)CC2 = 2.47 µM
COc1cc2c(cc1-c1c(C)noc1C)ncc1[nH]c(=O)n([C@H](C)c3ccccn3)c12 = 6.07 µM
O=C(Nc1ccc([N+](=O)[O-])cc1)c1cc2ccccc2cc1O = 0.285 µM
CC1(C)CC(O)CCCCCCOc2c(CN)cccc2NC(=O)c2nc(cnc2N)-c2ccc(cc2)S1(=O)=O (centres undefined) = 1.36 µM
c1cc(-c2cnn3nc(N4CCOCC4)ccc23)nc(NC2CC2)n1 = 7.82 µM

--- query ---
query: So what does the record say about GI50 for COc1ccc(Cn2c3c(c4c(O)cccc42)C(=O)c2ccccc2-3)cc1 ?
result: 18.2 µM

====

// values below are reported TGI
# Test system: SK-MEL-28 melanoma
# protocol.notes: NCI tumour cell line growth inhibition, 48 h
Where a SMILES comes first, the peptide text is derived from it. [ ]: non-standard residue; d: D form. The star is where a group is joined. X28 = COC1=CC(=O)N(C(=O)[C@@H](O*)C(C)C)[C@H]1Cc1ccccc1; NMeL = CN[C@@H](CC(C)C)C(=O)O; Cbz = O=C(OCc1ccccc1)*

CC(C)c1ccc(O)c(O)c(=O)c1 (tested in a mixture with another compound) = 23.8 µM
COc1cc(/C=N/O)nc(-c2ccccn2)c1 = > 100 µM
[N-]=[N+]=NC(c1cn(C2CC(O)C(CO)O2)c(=O)[nH]c1=O)C(I)I (centres undefined) = > 100 µM
CCN(CC)CCNc1ccc2nnn3c4ccc(OC(C)=O)cc4c(=O)c1c23 = 26.3 µM
CC(C(O)c1ccccc1)[N+](=O)[O-] (centres undefined) = 41.5 µM

query: Find the measured TGI: item C#CCOc1cccc(Nc2ncnc3c2ncn3C2CCN(C(=O)CCl)C2)c1 (centres undefined) , target or system SK-MEL-28 melanoma.
result: 53.9 µM

query: Please answer likewise for CCCCCCCCCCCCCCCCCCOCC1(COP(=O)([O-])OCC[N+](C)(C)C)CCCO1 (centres undefined)
result: 32.2 µM

query: Please answer likewise for C[n+]1ccc2[nH]c3ccccc3c2c1
result: > 100 µM

query: Please answer likewise for Cc1ccc(N2C(=O)C(O)=C(C(=O)C(C)(C)C)C2c2ccc([N+](=O)[O-])cc2)cc1 (centres undefined)
result: 63.6 µM

query: Please answer likewise for Cc1cc(S(=O)(=O)Nc2nc3ccsc3c(=O)n2Cc2ccccc2)c(S)cc1Cl
result: 57.2 µM

query: Please answer likewise for O=C(Cc1nc2ccccc2s1)C(=O)Nc1ccc(Cl)cc1Cl
result: > 100 µM

query: Please answer likewise for COC1=CC(=O)N(C(=O)[C@@H](OC(=O)[C@@H]2CCCN2C(=O)[C@@H]2CCCN2C(=O)[C@H](CC(C)C)N(C)C(=O)[C@@H](NC(=O)[C@@H](NC(=O)OCc2ccccc2)C(C)C)C(C)C)C(C)C)[C@H]1Cc1ccccc1 (Cbz-VV[NMeL]PP-X28)
result: > 100 µM

query: Please answer likewise for Cc1cc(Cl)ccc1Nc1nc(C(F)(F)F)ccc1C(=O)N/N=C/c1ccc(N(C)C)cc1
result: > 100 µM

query: Please answer likewise for N#CCCCCC12C3C(=O)N(c4ccccc4)C(=O)C3ON1O[C@@H]1C(=O)N(c3ccccc3)C(=O)[C@@H]12 (some centres undefined)
result: > 100 µM

====

# Test system: NCI-H460 lung
# protocol.notes: NCI tumour cell line growth inhibition, 48 h
// values below are reported TGI
Answer in µM, number only, no unit symbol.

Solved entries:
CN1CCN(c2ccc3nc(-c4ccc5nc(-c6ccc(N(C)CCCl)cc6)[nH]c5c4)[nH]c3c2)CC1 = 5.14
OCCCCC#Cc1ccccc1C#Cc1cccs1 = 29.8
CN(C)Cc1cc(C(=O)/C=C/c2c(F)cccc2Cl)cc(CN(C)C)c1O = 11.8

--- query ---
query: Find the measured TGI: item Cc1ccc(-c2nc3n(c2/C=N\N=C(N)N)CCS3)cc1 , target or system NCI-H460 lung.
result: 32

====

// values below are reported TGI
# System: HCC-2998 colon
# protocol.notes: NCI tumour cell line growth inhibition, 48 h

Solved entries:
C=C1C(=O)O[C@H]2[C@H]1CC/C(COC(=O)NCc1cccc(OC)c1)=C\CC[C@@]1(C)O[C@@H]21 = 31.1 µM
CC(Nc1cc(=O)n(C)c(=O)[nH]1)c1ccccc1 (centres undefined) = > 100 µM
CC(=O)C1C(=O)C(=O)N(c2ccc([N+](=O)[O-])cc2Cl)C1=O (centres undefined) = > 100 µM
COc1ccc(CCNC(=S)/N=C\C2=C(O)c3ccccc3C2=O)cc1OC = > 100 µM
CN(C)NC(=S)NC12CC3CC(CC(C3)C1)C2 = > 100 µM
O=C(O)c1ccc(/C=N\N(CCO)C2=NCCN2)cc1 = > 100 µM
O=C1c2c(O)cccc2C(C(=O)CCCC(=O)C2c3cccc(O)c3C(=O)c3c(O)cccc32)c2cccc(O)c21 = 3.4 µM
CC(C)=CCC[C@@H](C)C1=C(O)C(Nc2ccccc2F)=C(C)C(=O)C1=O = > 100 µM

query: Find the measured TGI: item CC1(C)CC(=O)C2=C(C1)N(c1ccccc1)C1(O)C=CC(=O)C3=C(O)c4ccccc4C(=O)C321 (centres undefined) , target or system HCC-2998 colon.
result: 78.2 µM
